Reference for the values: PubChem BioAssay (NCI)

- experiment_notes: NCI Yeast Anticancer Drug Screen. Data for the rad50 strain (AID 155);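 also: 0% = growth of vehicle-only cultures of the same strain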
- setup_conditions: S. cerevisiae rad50 strain growth inhibition; at 50.0 µM
The panel holds about 79,000 compounds, 15% with a hit somewhere; the sample as a whole holds those more often. Activity calls are given as the source filed them. Rule as the data show it: active = growth inhibition above about 70%; inactive = the rest.
Pick from class 1 = active, class 0 = inactive when you respond.

# input What was the test verdict on `O=c1[nH]c(SCc2c(Cl)c(Cl)c(Cl)c(Cl)c2Cl)nc(=S)[nH]1` ?
# output class 0

# input Field: outcome | Entry: CCCCCCC(CCCCCCCCCCC(=O)OCC(CC)CC)OC(=O)CC (stereo unspecified)
# output class 0

###

- experiment_notes: NCI Yeast Anticancer Drug Screen. Data for the mlh1 rad18 strain (AID 175)
- setup_conditions: S. cerevisiae mlh1 rad18 strain growth inhibition; at 50.0 µM; hits give high values
The panel holds about 79,000 compounds, 15% with a hit somewhere; the sample as a whole holds those more often. Where a SMILES comes first, the peptide text is derived from it.
Assign growth inhibition to each entry below.
Give bare numbers, in %.

Please review the following examples before continuing.
compound	output_unit	numeric_readout
C=C1CCC[C@@H]2[C@@](C)(Cc3cc(O)ccc3O)C(C)CC[C@]12C (some centres not stated)	%	97.7
CCN(C(=O)C(Cl)Cl)C(Cc1ccccc1)c1ccccc1 (configuration not stated)	%	86
CC(C)C(NC(=O)C(N)CCC(=O)O)C(=O)O (stereo not drawn) (H-Glu-Val-OH; configuration not given here)	%	9.95
Cc1cccc2c1Oc1cc(Cl)ccc1C2NC(=O)CCN1CCCCC1 (configuration not stated)	%	69.1
Clc1nc2nc(Cl)c(Cl)n2nc1Cl	%	99.5
Fc1ccccc1-c1ncc(-c2ccccc2)o1	%	4.3
CCN(CC)C(=S)Sc1nc2ccccc2s1	%	18.4
O=S(c1cc(Br)ccc1O)c1cc(Br)ccc1O	%	99.5
COc1ccc2nc3cc(Cl)ccc3c(NCCCNCc3cc(OC)c(OC)c(OC)c3)c2c1	%	98
O=Cc1cc([N+](=O)[O-])cc(CCl)c1O	%	27.9

Please look at the items below and tell me growth inhibition for each one, in order.
1. O=C(c1ccc(Cl)cc1)C(O)c1ccc(Cl)cc1 (configuration not stated)
2. Cn1c(N)nc(=O)c2[nH]cnc21

# output
62.3
-17.2

###

- experiment_notes: NCI Yeast Anticancer Drug Screen. Data for the mlh1 rad18 strain (AID 175)
- setup_conditions: S. cerevisiae mlh1 rad18 strain growth inhibition; at 50.0 µM (retest, dose inferred, filed as 5.0); hits give high values
About 79,000 compounds went through this panel and 15% of them were active in at least one assay; those are over-represented in the sample as a whole.
measure_name: growth inhibition (%)
One number for each entry, in %.

Below: 5 molecules and their reported growth inhibition.
molecule	output_unit	growth inhibition
COC(=O)[C@]1(C)CCC[C@]2(C)c3ccc(C(C)C)cc3CC[C@@H]12	%	66
O=C(O)c1ccc(C(c2ccccc2)c2ccccc2)cc1	%	99
CCCCC(O)CC (stereo unspecified)	%	0
Cc1ccc(S(=O)(=O)NC2CCCCCCC2)cc1	%	99
CC(=O)OC(OC(C)=O)c1c2ccccc2cc2ccccc12	%	97

For the next question, use this molecule.
# input I'd like to know its growth inhibition. The molecule in question is `O=C1c2ccccc2C(=O)N1CC[P+](c1ccccc1)(c1ccccc1)c1ccccc1`
# output 85
